biological target: COX-2 (Homo sapiens, UniProt P35354); assay: IC50 determinations using purified enzymes (TLC assay), COX-2; assay type: biochemical; parameters: made in house; host or cells: Sf9 insect cells; details: Table 3; assayed against purified enzymes; read-out: IC50 COX-2
Sequence (P35354 18-604): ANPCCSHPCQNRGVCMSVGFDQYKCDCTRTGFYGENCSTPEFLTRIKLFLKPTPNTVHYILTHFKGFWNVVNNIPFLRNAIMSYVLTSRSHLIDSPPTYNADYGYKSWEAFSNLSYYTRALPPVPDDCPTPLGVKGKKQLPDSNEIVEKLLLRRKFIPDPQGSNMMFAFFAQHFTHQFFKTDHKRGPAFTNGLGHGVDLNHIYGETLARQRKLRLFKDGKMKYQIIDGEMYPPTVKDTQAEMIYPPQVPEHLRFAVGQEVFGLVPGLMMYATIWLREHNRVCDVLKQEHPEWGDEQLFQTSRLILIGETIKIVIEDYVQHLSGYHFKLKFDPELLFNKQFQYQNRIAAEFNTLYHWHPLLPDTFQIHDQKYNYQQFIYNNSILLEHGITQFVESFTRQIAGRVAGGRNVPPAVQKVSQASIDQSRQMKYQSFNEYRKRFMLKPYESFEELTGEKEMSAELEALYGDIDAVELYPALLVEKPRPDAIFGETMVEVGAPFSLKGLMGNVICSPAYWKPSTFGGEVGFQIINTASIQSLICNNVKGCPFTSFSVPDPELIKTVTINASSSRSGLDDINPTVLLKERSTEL
Recorded IC50 by entry

Previously resolved entries follow.
CCN(CC)c1ccc2cc(C(=O)NCCCNC(=O)Cc3c(C)n(C(=O)c4ccc(Cl)cc4)c4ccc(OC)cc34)c(=O)oc2c1 [Compound 27gg] | 0.053 µM
COc1ccc2c(c1)c(CC(=O)NCCCNC(=S)Nc1ccc(-c3c4ccc(=O)cc-4oc4cc(O)ccc34)c(C(=O)O)c1)c(C)n2C(=O)c1ccc(Cl)cc1 [Compound 27kk] | > 25 µM
COc1ccc2c(c1)c(CC(=O)NCCCNS(=O)(=O)c1cccc3c(N(C)C)cccc13)c(C)n2C(=O)c1ccc(Cl)cc1 [Compound 27y] | 0.075 µM
COc1ccc2c(CC(=O)NCCNC(=O)Cc3c(C)n(C(=O)c4ccc(Cl)cc4)c4ccc(OC)cc34)cc(=O)oc2c1 [Compound 27dd] | > 25 µM
COc1ccc2c(c1)c(CC(=O)NCCCCNC(=S)Nc1ccc(-c3c4ccc(=O)cc-4oc4cc(O)ccc34)c(C(=O)O)c1)c(C)n2C(=O)c1ccc(Cl)cc1 [Compound 27ll] | 3.1 µM

Turning now to a further record.
Input: // IC50 lookup, key: COc1ccc2c(c1)c(CC(=O)N1CCN(C(=O)c3ccc(C(=O)O)c(-c4c5ccc(=O)cc-5oc5cc(O)ccc45)c3)CC1)c(C)n2C(=O)c1ccc(Cl)cc1 [Compound 27tt]
Output: > 25 µM

----------
molecular target: COX-2 (Homo sapiens); assay: IC50 determinations using purified enzymes (TLC assay), COX-2; assay type: biochemical; set-up: made in house; host or cells: Sf9 insect cells; conditions: Table 3; assayed against purified enzymes; read-out: IC50 COX-2
value type: IC50 (nM)
Report only the number, with the unit nM understood.

Previously resolved entries follow.
COc1ccc2c(c1)c(CC(=O)NCCCNS(=O)(=O)c1ccc(/N=N/c3ccc(N(C)C)cc3)cc1)c(C)n2C(=O)c1ccc(Cl)cc1 [Compound 27bb] | 134
COc1ccc2c(c1)c(CC(=O)NCCCCNS(=O)(=O)c1cccc3c(N(C)C)cccc13)c(C)n2C(=O)c1ccc(Cl)cc1 [Compound 27z] | 67
COc1ccc2c(c1)c(CC(=O)N1CCN(C(=O)c3ccc(C4=c5cc6c7c(c5Oc5c4cc4c8c5CCCN8CCC4)CCC[N+]=7CCC6)c(C(=O)[O-])c3)CC1)c(C)n2C(=O)c1ccc(Cl)cc1 | 1300

Input: // IC50 lookup, key: `CCN(CC)c1ccc2c(-c3ccc(S(=O)(=O)NCCOCCOCCOCCOCCC(=O)NCCCCNC(=O)Cc4c(C)n(C(=O)c5ccc(Cl)cc5)c5ccc(OC)cc45)cc3S(=O)(=O)[O-])c3ccc(=[N+](CC)CC)cc-3oc2c1`
Output: 160

Input: // IC50 lookup, key: `COc1ccc2c(c1)c(CC(=O)NCCNC(=O)c1ccc(C3=c4cc5c6c(c4Oc4c3cc3c7c4CCCN7CCC3)CCC[N+]=6CCC5)c(C(=O)[O-])c1)c(C)n2C(=O)c1ccc(Cl)cc1`
Output: 2800

Input: // IC50 lookup, key: CC[N+](CC)=c1ccc2nc3c(cc(NC(=O)CCOCCOCCOCCOCCNC(=O)Cc4c(C)n(C(=O)c5ccc(Cl)cc5)c5ccc(OC)cc45)c4ccccc43)oc-2c1 [Compound 27uu]
Output: 1700

Input: // IC50 lookup, key: CCN(CC)c1ccc2cc(C(=O)NCCCCNC(=O)Cc3c(C)n(C(=O)c4ccc(Cl)cc4)c4ccc(OC)cc34)c(=O)oc2c1 [Compound 27ff]
Output: 31

Input: // IC50 lookup, key: COc1ccc2c(c1)c(CC(=O)NCCNS(=O)(=O)c1cccc3c(N(C)C)cccc13)c(C)n2C(=O)c1ccc(Cl)cc1 [Compound 27x]
Output: 66

Input: // IC50 lookup, key: `CC[N+](CC)=c1ccc2c(-c3ccccc3)c(C)c(/C=C/C=C3/N(CCCCCC(=O)NCCCCNC(=O)Cc4c(C)n(C(=O)c5ccc(Cl)cc5)c5ccc(OC)cc45)c4ccc(S(=O)(=O)[O-])cc4C3(C)C)oc-2c1`
Output: 1000

Value source: patent US7736624B2
